Listed next: entries and their corresponding koff.
Biological target: T1, full length recombinant human 2N4R tau (amino acids 1-441) (human, UniProt P10636 1-758)
T1 construct: Bought (rPeptide); recombinant, non-phosphorylated; also called recombinant tau
T1 sequence (P10636 other isoform, or with tags, fused parts or gaps limits assumed): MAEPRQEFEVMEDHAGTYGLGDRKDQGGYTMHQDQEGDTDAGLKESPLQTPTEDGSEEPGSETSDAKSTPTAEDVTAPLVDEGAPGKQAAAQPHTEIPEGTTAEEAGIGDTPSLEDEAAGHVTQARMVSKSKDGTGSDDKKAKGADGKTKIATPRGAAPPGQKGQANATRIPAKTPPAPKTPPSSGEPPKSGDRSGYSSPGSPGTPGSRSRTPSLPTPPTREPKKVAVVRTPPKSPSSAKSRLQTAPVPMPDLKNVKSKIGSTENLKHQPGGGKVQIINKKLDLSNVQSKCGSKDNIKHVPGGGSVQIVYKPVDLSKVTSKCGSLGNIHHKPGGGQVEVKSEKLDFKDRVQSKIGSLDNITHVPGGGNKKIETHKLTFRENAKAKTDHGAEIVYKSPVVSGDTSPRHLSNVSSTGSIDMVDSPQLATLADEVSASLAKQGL
Test: SPR Biacore SCK, IgG on Protein A, tau analyte

{"BINDER": "Clone 36 (VH6Vκ4), humanised variant of clone #28, human IgG1 (antibody, V domains shown, also called VH6VK4) VH: QVQLQESGPGLVKPSETLSLTCTVSGFSLNNYDMSWVRQAPGKGLEWIGTVSTTYRRYYADSVKGRFTISRDNSKNTLDLQMTSLTAEDTATYFCAASGIWGRGTLVTVSS VL: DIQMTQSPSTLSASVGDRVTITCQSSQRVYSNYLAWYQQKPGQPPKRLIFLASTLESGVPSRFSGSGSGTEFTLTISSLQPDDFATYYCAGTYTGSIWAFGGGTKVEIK", "MEASUREMENT_UNIT": "s⁻¹", "koff": 0.00406}
{"BINDER": "Clone 31 (VH5Vκ2), humanised variant of clone #28, human IgG1 (antibody, V domains shown, also called VH5VK2; VH5Vk2) VH: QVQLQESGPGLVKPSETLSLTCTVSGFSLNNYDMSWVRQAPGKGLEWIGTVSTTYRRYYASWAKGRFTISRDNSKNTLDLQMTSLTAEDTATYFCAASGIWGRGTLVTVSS VL: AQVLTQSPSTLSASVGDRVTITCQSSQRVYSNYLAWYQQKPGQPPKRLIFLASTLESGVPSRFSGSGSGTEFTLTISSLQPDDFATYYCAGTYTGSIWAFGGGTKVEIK", "MEASUREMENT_UNIT": "s⁻¹", "koff": 0.00362}
{"BINDER": "Clone 32 (VH5Vκ4), humanised variant of clone #28, human IgG1 (antibody, V domains shown, also called VH5VK4; VH5Vk4) VH: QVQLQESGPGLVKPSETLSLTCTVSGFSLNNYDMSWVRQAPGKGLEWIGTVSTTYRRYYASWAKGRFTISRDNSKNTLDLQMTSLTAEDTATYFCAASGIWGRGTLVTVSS VL: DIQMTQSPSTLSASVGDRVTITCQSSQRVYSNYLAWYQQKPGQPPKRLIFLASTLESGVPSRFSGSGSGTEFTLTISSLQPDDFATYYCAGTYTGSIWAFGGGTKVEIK", "MEASUREMENT_UNIT": "s⁻¹", "koff": 0.00239}

Hello, the source for this data is patent US20220265819A1, in case you need it.
